Tested on: human APOE RNA
protocolText: Dose-dependent inhibition of human APOE RNA in HepG2 cells, electroporation, 50,000 cells per well, RT-PCR normalized to GAPDH (Example 4, Tables 8-10)
Format: cell-based
conditionDetails: HepG2 cells, electroporation, 24-hour treatment, 8,000 nM, Table 8
Strand notation (5' to 3'): a small letter for the sugar, then the base; units joined by * are phosphorothioate-linked, units joined directly phosphodiester-linked; [ ] holds rarer units or linkages, { } end groups; capitals alone tell only the bases. [ms] = mesyl phosphoramidate linkage; e = 2'-O-(2-methoxyethyl) (MOE); k = constrained ethyl (cEt); [5mC] = 5-methylcytosine; d = 2'-deoxy (DNA)

- substance: "1778128: modified oligonucleotide complementary to human APOE RNA (eA*e[5mC]eTeTkGkG*dT*dG[ms]dA[ms]dA*dT*d[5mC]*dT*dT*dT*dA[ms]kTeT*eA*eA; antisense) [compound 1778128]"
  APOE RNA (% UTC) 8,000 nM: 8
- substance: "1778130: modified oligonucleotide complementary to human APOE RNA (eA*e[5mC]eTeTeG*kG*dT*dG[ms]dA[ms]dA*dT*d[5mC]*dT*dT*dT*dA[ms]kTkT*eA*eA; antisense) [compound 1778130]"
  APOE RNA (% UTC) 8,000 nM: 10
- substance: "1785604: modified oligonucleotide complementary to human APOE RNA (k[5mC]*dT[ms]dT[ms]kG*dG[ms]kT*dG[ms]dA[ms]dA*dT*d[5mC]*dT*dT*dT*dA*dT*kT*kA*dA[ms]kA; antisense) [compound 1785604]"
  APOE RNA (% UTC) 8,000 nM: 13
- substance: "1785599: modified oligonucleotide complementary to human APOE RNA (k[5mC]*kT*kT*dG[ms]dG[ms]dT[ms]dG[ms]dA[ms]dA[ms]dT[ms]d[5mC]*dT*dT*dT*dA*dT*kT*kA*dA[ms]kA; antisense) [compound 1785599]"
  APOE RNA (% UTC) 8,000 nM: 9

====

Test system: human APOE RNA
protocolText: Duration of action study in APOE C57BL/6NTac-Apoeem7250 knock-in mice (Example 16)
Type: in vivo
conditionDetails: spinal cord; 300 μg ICV; 140 days post-dose
Strand notation (5' to 3'): a small letter for the sugar, then the base; units joined by * are phosphorothioate-linked, units joined directly phosphodiester-linked; [ ] holds rarer units or linkages, { } end groups; capitals alone tell only the bases. [ms] = mesyl phosphoramidate linkage; k = constrained ethyl (cEt); [5mC] = 5-methylcytosine; d = 2'-deoxy (DNA)

- substance: "1746799 (k[5mC]*dT[ms]kT*dG[ms]kG*dT[ms]dG[ms]dA[ms]dA[ms]dT*d[5mC]*dT*dT*dT*dA[ms]dT*kT*dA[ms]kA*kA; antisense) [Compound 1746799]"
  targetEntity: "human APOE RNA"
  unitLabel: "% control"
  APOE RNA (% control) Spinal Cord: 66
- substance: "1746801 (k[5mC]*dT[ms]dT[ms]kG*kG*dT[ms]dG[ms]dA[ms]dA[ms]dT*d[5mC]*dT*dT*dT*dA[ms]dT*kT*dA[ms]kA*kA; antisense) [Compound 1746801]"
  targetEntity: "human APOE RNA"
  unitLabel: "% control"
  APOE RNA (% control) Spinal Cord: 138
- substance: "1746784 (k[5mC]*kT*kT*dG[ms]dG[ms]dT[ms]dG[ms]dA[ms]dA[ms]dT*d[5mC]*dT*dT*dT*dA[ms]dT*kT*kA*dA[ms]kA; antisense) [Compound 1746784]"
  targetEntity: "human APOE RNA"
  unitLabel: "% control"
  APOE RNA (% control) Spinal Cord: 56
- substance: "1746809 (k[5mC]*dT[ms]kT*dG[ms]kG*dT[ms]dG[ms]dA[ms]dA[ms]dT*d[5mC]*dT*dT*dT*dA[ms]dT*dT[ms]kA*kA*kA; antisense) [Compound 1746809]"
  targetEntity: "human APOE RNA"
  unitLabel: "% control"
  APOE RNA (% control) Spinal Cord: 107
- substance: "1746811 (k[5mC]*dT[ms]dT[ms]kG*kG*dT[ms]dG[ms]dA[ms]dA[ms]dT*d[5mC]*dT*dT*dT*dA[ms]dT*dT[ms]kA*kA*kA; antisense) [Compound 1746811]"
  targetEntity: "human APOE RNA"
  unitLabel: "% control"
  APOE RNA (% control) Spinal Cord: 103
- substance: "1746804 (k[5mC]*kT*kT*dG[ms]dG[ms]dT[ms]dG[ms]dA[ms]dA[ms]dT*d[5mC]*dT*dT*dT*dA[ms]dT*dT[ms]kA*kA*kA; antisense) [Compound 1746804]"
  targetEntity: "human APOE RNA"
  unitLabel: "% control"
  APOE RNA (% control) Spinal Cord: 207
- substance: "1746790 (k[5mC]*dT[ms]kT*dG[ms]dG[ms]kT*dG[ms]dA[ms]dA[ms]dT*d[5mC]*dT*dT*dT*dA[ms]dT*kT*kA*dA[ms]kA; antisense) [Compound 1746790]"
  targetEntity: "human APOE RNA"
  unitLabel: "% control"
  APOE RNA (% control) Spinal Cord: 108
- substance: "1746803 (k[5mC]*dT[ms]dT[ms]kG*dG[ms]kT*dG[ms]dA[ms]dA[ms]dT*d[5mC]*dT*dT*dT*dA[ms]dT*kT*dA[ms]kA*kA; antisense) [Compound 1746803]"
  targetEntity: "human APOE RNA"
  unitLabel: "% control"
  APOE RNA (% control) Spinal Cord: 82
